# System: MS2 coat protein
# assay.procedure: apparent KD of MS2 coat protein; higher = weaker reporter binding
# measurement.setup: Eterna round: R107; input ligand: none

[
  {
    "primary.sequence": "UCAAAUGCGGCGGCCGCCACUCGCGGAUAACGAUAGCUUAACAUGAGGAUCACCCAUGUGUCAUGGAGGACCGGGCCCAUAACAU [ttmullin]",
    "apparent KD of MS2 coat protein / nM": 27.2
  },
  {
    "primary.sequence": "UCGCUCUGGGUGAAAUCCGGAGAUGUGGAAGGAGCGCUCGAAAGAGCAGGUAGGUCGCCAACGGACAUGAGGAUCACCCAUGUAC [Same State - Arginine A (Freestyle 20)]",
    "apparent KD of MS2 coat protein / nM": 29.6
  },
  {
    "primary.sequence": "UAAUAAUUGUGAUUCUCAGGUCCUCGAUAACGAGGACCGGUACGGCCGCCACUCGAACAUGAGGAUCACCCAUGUAUGAGGACCU [M'-T'-T-MS2-T'' - Design 3]",
    "apparent KD of MS2 coat protein / nM": 15.9
  },
  {
    "primary.sequence": "GCGAUGGAGCGAAGGAGCGGCUGUGACUACAUGAGGAUCACCCAUGUACGAUUGUAAGGUAGCCAGGUAGGUCGCGCUCCAUCGC [SSAB NP+V+V2 #18]",
    "apparent KD of MS2 coat protein / nM": 16.3
  },
  {
    "primary.sequence": "CUGCCAUGCAGAGAUACCAGUGAGCUCAGAACAUGAGGAUCACCCAUGUACGCCGCCGAUCACCCUUGGCAGCUCUGCAUGGCAG [%*#)(]",
    "apparent KD of MS2 coat protein / nM": 12.4
  },
  {
    "primary.sequence": "GGACUAACCAGAAGGAGCGACACGCAGAAACUGCUAAUUCCUCCGCACGAGGAUCACCCGUGUCAGGUAGGUCGCUGGUUAGUCG [ArgBX 28]",
    "apparent KD of MS2 coat protein / nM": 20.5
  },
  {
    "primary.sequence": "UCUAGGCUCGGAAACGAGCCUAGUACAGAAGGAGCGUGGAUUAACACAGGUAGGUCGCUGACAUGAGGAUCACCCAUGUAUUAUU [SSAA #3]",
    "apparent KD of MS2 coat protein / nM": 24.3
  },
  {
    "primary.sequence": "AAAGGAAGGUAAAAUAAAACUACAUGUGAAGGAGCGCCCGAAAGGGCAGGUAGGUCGCACAUGAGGAUCACCCAUGUCCUUCCAA [ArgEX 6 #SwitchBubble]",
    "apparent KD of MS2 coat protein / nM": 319
  },
  {
    "primary.sequence": "GGUUGGUAUAUAUAUAUAUUGAUUACUGAAGGAGCGGGAAAUAACCCAGGUAGGUCGCAGAGAUCCACAUGAGGAUCACCCAUGU [!0.G]",
    "apparent KD of MS2 coat protein / nM": 45.1
  },
  {
    "primary.sequence": "GGGCGUGUGGUGCGGCGUGCUCCGCUCCGUCGAGGACCGGUACGGCCGCCACUCGACAUGAGGAUCACCCAUGUGCGAGCGCGCG [#1 Exclusion - Tryptophan A Attempt #9 (HarryS)]",
    "apparent KD of MS2 coat protein / nM": 9.81
  },
  {
    "primary.sequence": "AGUAGACACGCGGCCGCCACUUGAGGAUCACCCAAGUGGUGUGUACUUGAAACAAGUGCACAAUCAAGGACCGGGCGUGUCUACA [Omei Tryp B SS D v4]",
    "apparent KD of MS2 coat protein / nM": 7.02
  },
  {
    "primary.sequence": "AAUUUUAACGGAAGGAGCGUCAAUUAAUACAAACAUGAGGAUCACCCAUGUCAAUACAUGAGACAGGUAGGUCGCCGUUAUUUGA [JR_AAArginiB_Sub024]",
    "apparent KD of MS2 coat protein / nM": 22.1
  }
]

* * *

# System: K4 kissing-loop RNA reporter;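 note: bound reporter read as fluorescence of individual clusters on recovered sequencing chips by microscopy, with normalized cluster intensities fitted with a binding model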
# assay.procedure: apparent KD of K4 kissing-loop reporter; higher = weaker reporter binding
# measurement.setup: Eterna round: R107; input ligand: none
Each record here notes measured apparent KD of K4 kissing-loop reporter.
assay.metric: apparent KD of K4 kissing-loop reporter (nM)

[
  {
    "primary.sequence": "GGGUCAUGGAACGGAUAAGUGAUGUUUACCCGAGGACCGGUACGGCCGCCACUCGGUCGUUAUUUCCGACGUGCUGGUAAGACUA [theeternabot_exclusion_KL_Trp_A_10]",
    "obs.value": 378
  },
  {
    "primary.sequence": "CGCGCGUGAGGACUUGCCCUUCAUGGAGAUACCAGCCAGUAUGCGGGCCCUUGGCAGCUCGAGUGAUGUUCGAGUUUAAGGCAAA [Riesla]",
    "obs.value": 115
  },
  {
    "primary.sequence": "AAAAUAAAGCAGUGAUGUUGCUUAUGAGAAGGAGCGCACGAAAGUGCAGGUAGGUCGCUCAGCCAAGUGGACGAAAACGUCCACA [#OpenEnded 10 #K4Early]",
    "obs.value": 123
  },
  {
    "primary.sequence": "GUGCAGUGAUGUUGCACGAGGAAAGACGAUACCAGCCGUAAAUAUGGCCCUUGGCAGCGUGGGCUAGCACAAAAUGUGCUAGUCU [Zareatza]",
    "obs.value": 116
  },
  {
    "primary.sequence": "UUUCGUUUCGUCUGACAUAAUUGGCUAGAAGGAGCGGUAAAAUUACCAGGUAGGUCGCUAGCCCAGUGAUGUUGGGACUAGCGUA [Edries]",
    "obs.value": 114
  },
  {
    "primary.sequence": "UAAGAAUAAGUAGCAGUGAUGUUGCUACUGCGAGGACCGGUACGGCCGCCACUCGAGUCCUCGAAACAUCACUGAACGAGGAAUA [whbob_SS_Tryp_A_m11]",
    "obs.value": 193
  },
  {
    "primary.sequence": "AGUAGUUGGACGGCCGCCACUGGAACAGCUUUGCCAAAGGCAGAGCACUAGAGUGAUGUUCUAGCUAGGACCGGGUCCAACUACA [whbob_SS_Tryp_B_t16]",
    "obs.value": 440
  },
  {
    "primary.sequence": "UGAUAGGACAGAAGGAGCGGGAGUGAUGUUCCCAAUAGGAGGUCUAGCAAAGCUGGACCCUCCCAGGUAGGUCGCUGUCCUAUCU [ArgBX 3 #SwitchBubble #StaticStem]",
    "obs.value": 96.1
  },
  {
    "primary.sequence": "CACAGAUCCUAAGGAUAUGGAGUGAUGUUCGCAAGUUCUUGGUGUGCAUUCAUCUGUCCUAUCAACCCAGAAGGUAGGAAGUCAC [theeternabot_exclusion_KL_FMN_B_1]",
    "obs.value": 550
  },
  {
    "primary.sequence": "UGGAUAUAGUUUAGUCUGGUGAGGUCAGAUACCAGACUAGCGAUAGUCCCUUGGCAGCUGAUUAUGAUUGAGUGAUGUUCAAUCG [Theo A Ex t9]",
    "obs.value": 170
  },
  {
    "primary.sequence": "AAGCAGUCACUCGCAGCCAUCGAAGAUGGGCGAGGACCGGUACGGCCGCCACUCGGAGUGAUGUUCCGCAGACUGCAAAAUAAAA",
    "obs.value": 350
  },
  {
    "primary.sequence": "UGAGGAGAGGGAAGGAGCGUGAAAGAGAAAGAAUAUAGUGAUGUUAUAUAGAAGAAAGAAUCACAGGUAGGUCGCCCGGAGGAGG [SSArgB.B]",
    "obs.value": 479
  }
]

* * *

# Tested on: MS2 coat protein
# assay.procedure: apparent KD of MS2 coat protein; higher = weaker reporter binding
# measurement.setup: Eterna round: R107; input ligand: none
Threshold check on apparent KD of MS2 coat protein: at or above 0.02 µM gives t, strictly below gives f.

[
  {
    "primary.sequence": "UGAGGGACCAGAAGGAGCGACAUGAGGAUCACCCAUGUCUCCCGUUAUGGGAGUUCUUUAGGUCAGGUAGGUCGCUGGUCCCUCA [#1 Exclusion - Arginine B Attempt #7 (Inspired by Omei)]",
    "class.label": "t"
  },
  {
    "primary.sequence": "ACAUGAGGACCGGAUACCAGCCACACAACAUGAGGAUCACCCAUGUCCCAUGUAUGAGGAGGCCCUUGGCAGCCGACAUACAUGA [Exclusion - Theophylline B #1]",
    "class.label": "t"
  },
  {
    "primary.sequence": "GACAGACGAGGAAGGAGCGACAUGAGGAUCACCCAUGUUGCGGGUUUAAGGUGAACUAAGUGUCAGGUAGGUCGCCUCGCUUUUA [Diatbeat]",
    "class.label": "t"
  },
  {
    "primary.sequence": "GGGUGGUAGGCGGCCGCCACUGAUUUUUAUUUAUAGAUGACAUGAGGAUCACCCAUGUUUAUGUGCAGGACCGGGCCUGUUGUGG [aaaR]",
    "class.label": "f"
  },
  {
    "primary.sequence": "GUUAGAUCAAAAGAUUUAACAGUGGGUGAACGAGGACCGGUACGGCCGCCACUCGGACAUGAGGAUCACCCAUGUCCAUGUGAAA [AstrosExyTryA#16]",
    "class.label": "f"
  },
  {
    "primary.sequence": "GAGUCCACGGCGGCCGCCACUCGCGGCGCCACAUGGCGCCGGGACAUGAGGAUCACCCAUGUCCCGAGGACCGGGCCGAUCCUUA [Same State Typrtophan B GF3]",
    "class.label": "t"
  }
]
